Data provenance: ChEMBL document CHEMBL5058577

Tested on: Fibroblast
Test: Multiplex assay against human fibroblast
Type: toxicity, cell-based
Details: 24 h, 1 µM, compound concentration 1 uM, replicate 2

{"columns": ["smiles-record", "tested-system", "Population Normal (%)"],
 "data": [
  ["COc1cc(C(=O)N2CC[C@@H](O)[C@@H](N)C2)cc2nc(-c3cc4ccccc4n3CC3CC3)n(C)c12.Cl", "Fibroblast", 95],
  ["CN(C)C(=O)Cn1cc(-c2ccc(-c3nnc4ccccn34)cc2)cn1", "Fibroblast", 95],
  ["O=c1ccc2ccc(OCCCCN3CCN(c4cccc5sccc45)CC3)cc2[nH]1", "Fibroblast", 96],
  ["CC(C)(C)c1ccc(CSc2cnn(C(C)(C)C)c(=O)c2Cl)cc1", "Fibroblast", 95],
  ["Cn1cc(C(=O)OCC2CCN(CCNS(C)(=O)=O)CC2)c2ccccc21", "Fibroblast", 97]
]}
